biological target: T1, human OT7T175 (metastin receptor) (human, UniProt Q969F8 1-398); experiment: FMAT competition with Cy-5-labeled metastin (40-54), hOT7T175-expressed CHO cells
T1 construct: expressed on CHO cells (hOT7T175-expressed CHO cells; hOT7T175/CHO); also called hOT7T175; h0T7T175
T1 sequence (Q969F8 whole entry L364H): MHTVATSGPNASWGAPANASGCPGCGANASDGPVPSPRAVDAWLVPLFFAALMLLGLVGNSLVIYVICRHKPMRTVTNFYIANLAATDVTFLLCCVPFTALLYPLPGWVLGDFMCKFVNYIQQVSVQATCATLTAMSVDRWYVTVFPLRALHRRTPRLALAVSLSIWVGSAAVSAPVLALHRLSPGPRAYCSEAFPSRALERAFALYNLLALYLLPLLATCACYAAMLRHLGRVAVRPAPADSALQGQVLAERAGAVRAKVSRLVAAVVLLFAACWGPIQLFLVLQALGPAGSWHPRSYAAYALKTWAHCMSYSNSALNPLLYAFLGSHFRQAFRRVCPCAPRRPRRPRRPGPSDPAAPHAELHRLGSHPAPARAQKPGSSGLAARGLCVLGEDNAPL
Square brackets hold non-standard residues; d marks the D form. Ends that are not written are not given here. 1Nal = N[C@@H](Cc1cccc2ccccc12)C(=O)O; Arg(Me) = CNC(=N)NCCC[C@H](N)C(=O)O; azaGly = NNC(=O)O
For each entry below, report its pIC50 value.
Answers are plain numbers, as −log10 of the molar value.

Example cases with answers are listed next.
LPNYNWNSFGLRF-NH2 [Compound No. 32: Leu-Pro-Asn-MS10] :: 7.60
YNWNSFGVRF-NH2 [Compound No. 107: [Val8]MS10] :: 6.92

What pIC50 value was documented for this binder, [dY]N[1Nal]NSF[azaGly]L[Arg(Me)]F-NH2 (N-terminus assumed; SMILES CNC(=N)NCCC[C@H](NC(=O)[C@H](CC(C)C)NC(=O)NNC(=O)[C@H](Cc1ccccc1)NC(=O)[C@H](CO)NC(=O)[C@H](CC(N)=O)NC(=O)[C@H](Cc1cccc2ccccc12)NC(=O)[C@H](CC(N)=O)NC(=O)[C@H](N)Cc1ccc(O)cc1)C(=O)N[C@@H](Cc1ccccc1)C(N)=O) [Compound No. 245: [D-Tyr1,Nal(1)3,AzaGly7,Arg(Me)9]MS10] ?
7.01

These measurements were taken from patent US20060241051A1.
